- assay.system: T1, Sso7d (UniProt P39476 1-64)
- T1 sequence (looked up): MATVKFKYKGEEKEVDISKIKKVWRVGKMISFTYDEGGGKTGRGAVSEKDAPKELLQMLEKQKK
- experiment.notes: fluorescence polarisation; FITC-labelled D/E-rich peptide against titrated protein; 20 mM HEPES-NaOH pH 7.5, 50 mM NaCl, 1 mM DTT; one-site total binding model
- condition.notes: both partners purified
Primed or numbered codes have the meaning given here. Where no end group is shown, it is not given here. FITC′ = fluorescein isothiocyanate label
experimental.endpoint: Kd (nM)
Answer with a number only, understood to be in nM.

Look at this binder and give its reported Kd. {FITC′}-DKACAEDDDEEDEEEEEEEPDPDP [D/E-rich peptide of MBD3, FITC-labelled]
1100
